target: soybean 15-LOX (Glycine max, UniProt P08170); construct: purchased; assay: In vitro soybean 15-lipoxygenase inhibition assay (spectrophotometric, linoleic acid substrate); type: biochemical; conditions: soybean 15-LOX; read-out: IC50 Value (μM) Mean ± SEM
So basically, if IC50 comes in under 20 µM it's Criterion met, and if it's 20 µM or more it's Criterion not met.

Answered examples (4):
CC(C)=CCC/C(C)=C/Cc1c(O)cc(O)c(C(=O)C(C)C)c1O [3a]; Criterion not met
CC(C)=CCC/C(C)=C/Cc1c(O)cc(O)c(C(=O)C2CCCCC2)c1O [3f]; Criterion not met
O=C(c1c(O)cc(O)cc1O)C1CCCCC1 [2f]; Criterion not met
CC(=O)c1c(O)cc(O)c(C/C=C(\C)CCC=C(C)C)c1O [tHGA, 2,4,6-trihydroxy-3-geranylacetophenone]; Criterion not met

Could you please tell me whether IC50 recorded for CC(C)=CCC/C(C)=C/Cc1c(O)cc(O)c(C(=O)/C=C/c2ccccc2)c1O [3g] is less than 20 µM?
Criterion met

How about this molecule: Oc1cc(O)cc(O)c1 [compound 1, phloroglucinol]
Criterion not met

How about this molecule: CC(C)C(=O)c1c(O)cc(O)cc1O [2a]
Criterion not met

How about this molecule: CCCCC(=O)c1c(O)cc(O)c(C/C=C(\C)CCC=C(C)C)c1O [3e]
Criterion met

How about this molecule: CCC(=O)c1c(O)cc(O)cc1O [2c, 1-(2,4,6-Trihydroxyphenyl)propan-1-one]
Criterion not met

How about this molecule: CCC(=O)c1c(O)cc(O)c(C/C=C(\C)CCC=C(C)C)c1O [3c]
Criterion met

How about this molecule: CC(C)(C)C(=O)c1c(O)cc(O)cc1O [2d]
Criterion not met

How about this molecule: O=C(/C=C/c1ccccc1)c1c(O)cc(O)cc1O [2g]
Criterion not met

---

Target: soybean 15-LOX (Glycine max, UniProt P08170)
Construct: purchased
Sequence (P08170 1-839): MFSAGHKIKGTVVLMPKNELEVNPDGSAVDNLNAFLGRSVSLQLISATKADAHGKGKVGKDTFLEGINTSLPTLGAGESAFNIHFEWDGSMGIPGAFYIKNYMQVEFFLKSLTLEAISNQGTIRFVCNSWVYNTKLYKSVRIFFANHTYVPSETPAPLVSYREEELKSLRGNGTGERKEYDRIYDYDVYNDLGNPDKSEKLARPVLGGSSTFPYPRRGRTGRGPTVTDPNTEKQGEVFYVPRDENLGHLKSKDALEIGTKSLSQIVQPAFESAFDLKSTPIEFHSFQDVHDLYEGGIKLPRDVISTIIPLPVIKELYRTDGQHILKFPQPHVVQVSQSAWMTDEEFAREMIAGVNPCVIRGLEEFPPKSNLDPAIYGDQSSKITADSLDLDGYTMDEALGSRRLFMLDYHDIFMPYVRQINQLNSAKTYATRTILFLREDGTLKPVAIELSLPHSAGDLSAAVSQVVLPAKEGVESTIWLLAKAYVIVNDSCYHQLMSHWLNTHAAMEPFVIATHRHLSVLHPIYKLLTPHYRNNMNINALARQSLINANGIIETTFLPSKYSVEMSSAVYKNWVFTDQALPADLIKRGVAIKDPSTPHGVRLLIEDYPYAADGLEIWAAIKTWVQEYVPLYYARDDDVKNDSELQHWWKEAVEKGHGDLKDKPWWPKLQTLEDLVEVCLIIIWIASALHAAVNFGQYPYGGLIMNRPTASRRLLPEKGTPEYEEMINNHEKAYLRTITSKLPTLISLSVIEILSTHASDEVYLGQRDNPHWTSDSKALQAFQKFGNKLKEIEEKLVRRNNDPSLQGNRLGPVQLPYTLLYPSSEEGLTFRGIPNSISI
Experiment: In vitro soybean 15-lipoxygenase inhibition assay (spectrophotometric, linoleic acid substrate)
Format: biochemical
Details: 100 μg/mL; mean ± SEM; read-out: % Inhibition (100 μg/mL)
Mark Condition met for reported inhibition at 100 µg/mL of 20% or greater; mark Condition not met for anything smaller.

Oc1cc(O)cc(O)c1; Condition met

Is inhibition at 100 µg/mL at least 20%? Consider CC(C)(C)C(=O)c1c(O)cc(O)cc1O
Condition not met

How about this compound: O=C(c1c(O)cc(O)cc1O)C1CCCCC1
Condition not met

How about this compound: CC(C)=CCC/C(C)=C/Cc1c(O)cc(O)c(C(=O)/C=C/c2ccccc2)c1O
Condition met

How about this compound: CC(=O)c1c(O)cc(O)c(C/C=C(\C)CCC=C(C)C)c1O [tHGA, 2,4,6-trihydroxy-3-geranylacetophenone]
Condition met

How about this compound: CC(C)C(=O)c1c(O)cc(O)cc1O
Condition not met

How about this compound: CCCCC(=O)c1c(O)cc(O)c(C/C=C(\C)CCC=C(C)C)c1O
Condition met

How about this compound: CCC(=O)c1c(O)cc(O)c(C/C=C(\C)CCC=C(C)C)c1O
Condition met

How about this compound: CC(C)=CCC/C(C)=C/Cc1c(O)cc(O)c(C(=O)C2CCCCC2)c1O
Condition met

How about this compound: CC(C)=CCC/C(C)=C/Cc1c(O)cc(O)c(C(=O)C(C)C)c1O
Condition met

Data provenance: paper PMC6271415
